Reference source: paper PMC11714206

Kindly state P8_MyD88 Rank (before) for each of the entries shown.
targetOrSystem: MyD88^TIR (Homo sapiens, UniProt Q99836)
Construct: MyD88 (residues 148–296); 6xHis; made in house; host or cells: E. coli BL21 (DE3)
Sequence (Q99836 148-296): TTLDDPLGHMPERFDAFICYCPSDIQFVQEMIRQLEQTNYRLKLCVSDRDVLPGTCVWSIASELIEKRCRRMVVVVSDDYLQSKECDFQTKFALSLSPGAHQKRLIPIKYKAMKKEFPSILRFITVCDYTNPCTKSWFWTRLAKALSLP
testDescription: T‐Surf phage library (P8 and P3) selection against MyD88^TIR, four rounds, NGS read counts
Type: binding
testContext: P8 library, selection against MyD88, rank before grouping
Please respond with just the number, no unit label.

Tell me reported P8_MyD88 Rank (before) for DPQDTDWFYERLVSMF , tested with MyD88^TIR (Homo sapiens, UniProt Q99836).
2976

Give MyD88^TIR (Homo sapiens, UniProt Q99836) P8_MyD88 Rank (before) for DPQDLNGFMNVCLAR
2947

Enter reported P8_MyD88 Rank (before) observed with MyD88^TIR (Homo sapiens, UniProt Q99836) for DIEYIHLFWDRLLYSL
3060
